- experimental-system: human TLR8 (Homo sapiens, UniProt Q9NR97)
- Construct: host or cells: HEK-Blue cells
- Sequence (Q9NR97 27-1041): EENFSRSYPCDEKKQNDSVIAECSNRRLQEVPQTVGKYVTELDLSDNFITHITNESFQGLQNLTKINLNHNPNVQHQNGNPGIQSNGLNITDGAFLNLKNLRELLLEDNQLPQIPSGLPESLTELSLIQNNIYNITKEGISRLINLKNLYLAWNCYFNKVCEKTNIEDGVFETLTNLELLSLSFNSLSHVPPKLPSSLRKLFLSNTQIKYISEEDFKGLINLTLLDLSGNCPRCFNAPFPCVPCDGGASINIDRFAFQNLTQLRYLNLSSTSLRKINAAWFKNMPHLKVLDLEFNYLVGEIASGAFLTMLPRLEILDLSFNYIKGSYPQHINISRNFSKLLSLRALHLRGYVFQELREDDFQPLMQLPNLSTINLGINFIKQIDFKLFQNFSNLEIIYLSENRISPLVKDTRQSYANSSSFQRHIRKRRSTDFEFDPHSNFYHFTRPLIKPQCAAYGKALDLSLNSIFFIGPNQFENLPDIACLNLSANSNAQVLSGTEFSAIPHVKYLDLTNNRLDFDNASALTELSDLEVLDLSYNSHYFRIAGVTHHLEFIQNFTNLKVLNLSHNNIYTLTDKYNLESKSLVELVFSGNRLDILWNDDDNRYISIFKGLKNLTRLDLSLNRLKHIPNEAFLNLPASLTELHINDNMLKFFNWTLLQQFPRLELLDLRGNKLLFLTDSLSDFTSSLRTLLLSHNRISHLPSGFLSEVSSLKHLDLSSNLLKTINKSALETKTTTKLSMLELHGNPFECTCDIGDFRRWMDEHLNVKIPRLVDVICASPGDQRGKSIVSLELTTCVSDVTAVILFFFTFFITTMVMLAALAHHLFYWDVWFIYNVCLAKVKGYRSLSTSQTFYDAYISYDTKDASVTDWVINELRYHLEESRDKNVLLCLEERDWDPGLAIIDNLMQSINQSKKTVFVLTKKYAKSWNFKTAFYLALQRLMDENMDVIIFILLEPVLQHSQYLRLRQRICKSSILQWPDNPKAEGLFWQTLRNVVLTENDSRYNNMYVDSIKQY
- method: TLR8 inhibition reporter assay (HEK-Blue cells, SEAP reporter)
- Format: cell-based
- details: HEK-Blue cells overexpressing human TLR8; stimulated with R848 15.9 μM; SEAP read after 22 hour; dose range 0.05 nM-50 μM
recorded-metric: IC50 (µM)

Example cases with answers are listed next.
CCc1c(-c2ccc(OC)c(OC)c2)c(=O)[nH]c2ccc(C3CCN(C4CCN(C(C)C)CC4)CC3)cc12 [Example 63]    11
CC(C)N1CCN(c2ccc(-c3ccc4c(c3)cc(-c3ccccc3)c(=O)n4C)cc2)CC1 [Example 58]    1.39
CC(C)N1CCC(c2ccc(-c3ccc4[nH]c(=O)c(-c5cccc(C#N)c5)cc4c3)cc2)CC1 [Example 69]    17.6
CC(C)N1CCN(c2ccc(-c3ccc4[nH]c(=O)c(-c5cc(F)ccc5F)cc4c3)cc2)CC1 [Example 20]    5.41
CC(C)N1CCN(c2ccc(-c3ccc4[nH]c(=O)c(-c5ccc(F)cc5)cc4c3)cc2)CC1 [Example 31]    16.7
CC(C)N1CCN(c2ccc(-c3ccc4[nH]c(=O)c(-c5ccc(N(C)C6CN(C)C6)cc5)cc4c3)cc2)CC1 [Example 51]    47

(a) CC(C)N1CCC(c2ccc(-c3ccc4c(c3)cc(-c3ccc(S(C)(=O)=O)cc3)c(=O)n4C)cc2)CC1 [Example 68]
(b) CC(C)N1CCN(c2ccc(-c3ccc4[nH]c(=O)c(-c5nn(C)c6ccccc56)cc4c3)cc2)CC1 [Example 35]
(c) CC(C)N1CCC(c2ccc(-c3ccc4[nH]c(=O)c(-c5ccc6nccnc6c5)cc4c3)cc2)CC1 [Example 93]
(d) CC(C)N1CCN(c2ccc(-c3ccc4[nH]c(=O)c(-c5ccccc5C#N)cc4c3)cc2)CC1 [Example 15]
Place the items in sequence of falling IC50. Please list each label once, in the requested order.
c, b, d, a

Entry source: patent US20260183275A1
